Reference source: patent US4762789A

System: lysate and culture supernatant proteolytic activity
Format: biochemical, Entamoeba histolytica
Settings: at the concentrations tested (Table I)
Non-standard residues stand in square brackets, D forms with d. Residues, ends and D or L forms follow the SMILES beside them. *: point of attachment. Sta = CC(C)C[C@H](N)[C@@H](O)CC(=O)O; Isovaleryl = CC(C)CC(=O)*
READOUT TYPE: Effect of inhibitor on proteolytic activity of lysate and culture supernatant

Observe how each entry below is paired with its result.
{"COMPOUND": "c1cnc2c(c1)ccc1cccnc12", "RESULT": "not affected"}
{"COMPOUND": "O=S(=O)(F)Cc1ccccc1 [phenylmethylsulfonyl fluoride (PMSF), phenylmethylsulfonyl fluoride]", "RESULT": "not affected"}
{"COMPOUND": "CCN1C(=O)C=CC1=O [N--ethylmaleimide (NEM), N-ethylmaleimide]", "RESULT": "completely inhibited"}
{"COMPOUND": "CC(C)CC(=O)N[C@H](C(=O)N[C@H](C(=O)N[C@@H](CC(C)C)[C@@H](O)CC(=O)N[C@@H](C)C(=O)N[C@@H](CC(C)C)[C@@H](O)CC(=O)O)C(C)C)C(C)C [pepstatin A] (Isovaleryl-VV[Sta]A[Sta]-OH)", "RESULT": "not affected"}

Please find the next compound below.
[in] Item under review: `Cc1ccc(S(=O)(=O)N[C@@H](CCCCN)C(=O)CCl)cc1` . Reported Effect of inhibitor on proteolytic activity of lysate and culture supernatant?
[out] completely inhibited
